- condition.label: buffer; pH 7.4; 200.0 µM
Please enter Criterion met where solubility kinetic is greater than or equal to 10 µg/mL, and Criterion not met where it is lower.

COC(=O)c1ccccc1N1CCS(=O)(=O)CC1; Criterion met

Lookup: Record COc1ccc(/C=C/C(=O)NCCCNC(=O)/C=C/c2ccc(OC)c(OC)c2)cc1OC ; criterion: solubility kinetic no lower than 10 µg/mL. Met?
Found: Criterion met

Lookup: Confirm if solubility kinetic reported for the molecule CCc1ccccc1NC(=O)C1CCCN(c2ncccn2)C1 (stereo not drawn) is 10 µg/mL or above.
Found: Criterion not met

Lookup: Check this molecule for solubility kinetic at or above 10 µg/mL: CCN1CCCC1CNC(=O)c1cc2ccc(OC)cc2[nH]1 (stereo not drawn)
Found: Criterion met

Lookup: Could you please find out whether O=C(O)C(=O)O.c1ccc2c(c1)CCN(C1CCCCC1)C2 has solubility kinetic that meets 10 µg/mL or exceeds it?
Found: Criterion met

Lookup: Hi team, for COc1ccc(NC(=O)c2ccc3c(c2)NC(=O)CS3)cc1 , is the recorded solubility kinetic at or above 10 µg/mL?
Found: Criterion met

Lookup: Reported solubility kinetic reaches at least 10 µg/mL for Cc1cc(C)c(NC(=O)C(=O)NCc2ccco2)c(C)c1 ?
Found: Criterion not met

Lookup: Would you say Clc1cccc(CN2CCc3c([nH]c4ccccc34)C2)c1 shows solubility kinetic at minimum 10 µg/mL?
Found: Criterion not met

Lookup: # bool: solubility kinetic of Cc1ccc(NC(=O)CN2C(=S)NC(C)(C)CC2C)cc1Cl (stereo not drawn) >= 10 µg/mL
Found: Criterion not met

Lookup: Could you tell me if the measured solubility kinetic of CC(C)C(=O)Nc1cc2c3c(c1)CCN3C(=O)CC2 reaches 10 µg/mL or more?
Found: Criterion met

Lookup: Does the reported solubility kinetic for CC1(C)CC2CC(C)(CN2/C=C2/CCCCC2=O)C1 (stereo not drawn) fall at or above the 10 µg/mL mark?
Found: Criterion met

Lookup: # bool: solubility kinetic of CN(Cc1ccccc1)C(=S)NC(=O)c1ccccc1 >= 10 µg/mL
Found: Criterion not met

Lookup: solubility kinetic >= 10 µg/mL for Cc1cc(=O)[nH]c(SCC(=O)Nc2ccc3c(c2)CCC3)c1C#N ?
Found: Criterion met

Lookup: Item COc1ccc(C(=O)NC2CC(C)(C)NC(C)(C)C2)cc1OC with solubility kinetic of 10 µg/mL or above?
Found: Criterion met

Lookup: Quick check, solubility kinetic >= 10 µg/mL? Cc1nc2ccccn2c1C(=O)NN=C1CCCC1
Found: Criterion met

Lookup: Please indicate if the recorded solubility kinetic for Cl.c1csc(CN2CCNCC2)c1 meets or exceeds 10 µg/mL.
Found: Criterion met

Lookup: Item COc1ccc(/C=C2\C(=O)NCC(=O)N2C)cc1 with solubility kinetic of 10 µg/mL or above?
Found: Criterion met

Lookup: Please tell me: is the molecule Cc1c(C(=O)Nc2ccc3c(c2)OCCO3)cnn1C at or over 10 µg/mL in terms of solubility kinetic?
Found: Criterion met
